# SYSTEM_NAME: Growth hormone secretagogue receptor type 1 (Homo sapiens, UniProt Q92847)
# Sequence (Q92847 whole entry): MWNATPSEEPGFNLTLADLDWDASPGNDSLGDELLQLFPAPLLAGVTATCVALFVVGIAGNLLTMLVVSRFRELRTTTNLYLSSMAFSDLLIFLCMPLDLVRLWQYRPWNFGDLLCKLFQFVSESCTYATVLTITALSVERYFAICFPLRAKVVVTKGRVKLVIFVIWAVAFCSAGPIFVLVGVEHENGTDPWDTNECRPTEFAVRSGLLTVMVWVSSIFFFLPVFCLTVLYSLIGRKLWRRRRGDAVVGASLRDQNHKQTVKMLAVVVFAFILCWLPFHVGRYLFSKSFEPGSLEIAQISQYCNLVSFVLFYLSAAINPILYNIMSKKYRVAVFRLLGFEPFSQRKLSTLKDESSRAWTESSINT
# EXPERIMENT_NOTES: Antagonist activity at human GHS receptor by inhibition of ghrelin-induced intracellular calcium flux in CHOK cells
# Format: functional, cell-based
In this section, each of the molecules is paired with its reported IC50.
Please don't drop the unit; write it after the number.

MOLECULAR_STRING | IC50
Nc1nc(N)c(-c2ccc(NCc3ccccc3)cc2)c(COCc2ccccc2)n1 | 0.98 µM
CCc1nc(N)nc(N)c1-c1ccc(NCc2ccc(C(C)=O)cc2)cc1 | 0.11 µM
N#Cc1ccc(COc2ccc(-c3c(N)nc(N)nc3COCc3ccccc3)cc2)cc1 | 3.61 µM
CCc1nc(N)nc(N)c1-c1ccc(CNc2ccc(S(C)(=O)=O)cc2)cc1 | 0.12 µM
CCc1nc(N)nc(N)c1-c1ccc(NCc2ccc([N+](=O)[O-])cc2)cc1 | 0.023 µM

Reported IC50 for `Nc1nc(N)c(-c2ccc(NCc3ccc(Cl)cc3)cc2)c(COCc2ccccc2)n1` : what is it?
0.18 µM

Reported IC50 for `CCc1nc(N)nc(N)c1-c1ccc(NCc2csc(Cl)c2)cc1` : what is it?
0.79 µM

Reported IC50 for `CCc1nc(N)nc(N)c1-c1ccc(NCc2ccc(C#N)cc2)cc1` : what is it?
0.78 µM

Reported IC50 for `CS(=O)(=O)c1ccc(CNc2ccc(-c3c(N)nc(N)nc3COCc3ccccc3)cc2)cc1` : what is it?
0.0072 µM

Reported IC50 for `Nc1nc(N)c(-c2ccc(NCc3ccc(Cl)cc3)cc2)c(CCc2ccccc2)n1` : what is it?
3.35 µM

Reported IC50 for `Nc1nc(N)c(-c2ccc(NCc3cc(F)c(S(=O)(=O)C(F)(F)F)c(F)c3)cc2)c(COCc2ccccc2)n1` : what is it?
0.085 µM

Reported IC50 for `CCc1nc(N)nc(N)c1-c1ccc(CNc2ccc([N+](=O)[O-])cc2)cc1` : what is it?
0.19 µM

Reported IC50 for `Nc1nc(N)c(-c2ccc(CNc3ccc([N+](=O)[O-])cc3)cc2)c(COCc2ccccc2)n1` : what is it?
0.016 µM

Reported IC50 for `CCc1nc(N)nc(N)c1-c1ccc(NCc2cc(F)c(S(=O)(=O)C(F)(F)F)c(F)c2)cc1` : what is it?
0.69 µM

====

In this section, each of the compounds is paired with its reported Cmax.
# EXPERIMENT_NOTES: Cmax in Sprague-Dawley rat at 5 mg/kg, iv
# Assay type: ADME, organism-based
# Design: dose 5 mg/kg, route intravenous
# CONDITION_LABEL: in vivo
Please don't drop the unit; write it after the number.

Worked cases, Cmax given:
MOLECULAR_STRING | RESULT
CCc1nc(N)nc(N)c1-c1ccc(NCc2ccc(S(C)(=O)=O)cc2)c(Cl)c1 | 160 ng/mL
CCc1nc(N)nc(N)c1-c1ccc(NCc2ccc(S(C)(=O)=O)cc2)cc1 | 320 ng/mL
CCc1nc(N)nc(N)c1-c1ccc(NCc2ccc(C(C)=O)cc2)cc1 | 140 ng/mL
Nc1nc(N)c(-c2ccc(NCc3ccc(Cl)cc3)cc2)c(COCc2ccccc2)n1 | 54 ng/mL
CCc1nc(N)nc(N)c1-c1ccc(N(C)Cc2ccc(S(C)(=O)=O)cc2)cc1 | 430 ng/mL

Reported Cmax for `CCc1nc(N)nc(N)c1-c1ccc(NCc2ccc(Cl)cc2)cc1` : what is it?
170 ng/mL

Reported Cmax for `CCc1nc(N)nc(N)c1-c1ccc(NCc2ccc([N+](=O)[O-])cc2)cc1` : what is it?
140 ng/mL
